Target protein (sequence): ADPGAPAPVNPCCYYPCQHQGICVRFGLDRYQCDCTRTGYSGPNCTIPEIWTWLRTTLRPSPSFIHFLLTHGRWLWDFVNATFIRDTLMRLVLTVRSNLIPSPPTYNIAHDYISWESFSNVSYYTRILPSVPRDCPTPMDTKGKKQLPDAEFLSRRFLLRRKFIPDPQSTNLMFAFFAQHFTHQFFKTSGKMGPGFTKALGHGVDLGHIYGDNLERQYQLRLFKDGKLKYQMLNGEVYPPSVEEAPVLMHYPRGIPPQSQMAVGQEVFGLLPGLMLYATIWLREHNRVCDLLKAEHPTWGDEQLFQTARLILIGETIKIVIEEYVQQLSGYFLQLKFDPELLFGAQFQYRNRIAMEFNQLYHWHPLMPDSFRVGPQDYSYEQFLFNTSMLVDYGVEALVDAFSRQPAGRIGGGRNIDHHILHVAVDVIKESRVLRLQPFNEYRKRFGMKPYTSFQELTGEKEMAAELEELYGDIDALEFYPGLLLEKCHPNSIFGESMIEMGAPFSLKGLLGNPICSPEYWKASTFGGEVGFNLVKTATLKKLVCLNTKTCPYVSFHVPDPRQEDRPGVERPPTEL
result type: IC50 (µM)

IC50 measured on CCN1C(=O)NC(c2ccccc2)(c2ccc(S(C)(=O)=O)cc2)C1=O (stereo not drawn) = 20.2

IC50 measured on CN1C(=O)NC(c2ccccc2)(c2ccc(S(C)(=O)=O)cc2)C1=O (stereo not drawn) = 22.7
